- SYSTEM TESTED: T1, Sumo-ELL2^Occ (human, UniProt O00472 519-640)
- T1 sequence (looked up): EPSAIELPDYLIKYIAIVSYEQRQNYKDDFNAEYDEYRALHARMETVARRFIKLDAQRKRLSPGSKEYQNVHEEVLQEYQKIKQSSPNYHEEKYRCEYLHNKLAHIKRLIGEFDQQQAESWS
- PROTOCOL NOTES: fluorescence polarisation
- EXPERIMENTAL CONTEXT: both partners purified
QUANTITY MEASURED: Kd (nM)
The response must be a number in nM with no trailing unit.

Please review the entries below; each comes with its answer.
{"columns": ["BINDER", "UNIT SPEC", "Kd"],
 "data": [
  ["His6-AFF4^ELLBow M323D (domain or fragment, human, UniProt Q9UHB7 301-351, looked up) PSQPLDASASGDVSCVDEILKEDTHSWPPPLTAIHTPCKTEPSKFPFPTKE", "nM", 2700],
  ["His6-AFF4^ELLBow K321P (domain or fragment, human, UniProt Q9UHB7 301-351, looked up) PSQPLDASASGDVSCVDEILPEMTHSWPPPLTAIHTPCKTEPSKFPFPTKE", "nM", 240]
]}

The record that follows has no Kd shown yet.
q: Which measured Kd value corresponds to His6-AFF4^ELLBow L331D (domain or fragment, human, UniProt Q9UHB7 301-351, looked up) PSQPLDASASGDVSCVDEILKEMTHSWPPPDTAIHTPCKTEPSKFPFPTKE ?
a: 1600
